# test-protocol: High-throughput drug toxicity screening in the BPDCN cell line Cal-1 (AID 1224825);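 also: cells exposed to compounds for 48 h; 100% = DMSO and 0% = bortezomib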
# condition: Cal-1 BPDCN cell viability, qHTS; at 45.8 µM (top of the series) unless noted
Class assignment keyed on viability (% of control), ranges c1 (below 8%), c2 (8% to below 90%), c3 (90% or more)

compound: COc1cc2c(cc1O)CCC1C2CC[C@@]2(C)C1CC[C@@H]2O (stereo partly drawn)
classification: c2
//
compound: C=CC(=O)Nc1ccc2ncnc(Nc3ccc(OCc4cccc(F)c4)c(Cl)c3)c2c1
classification: c1
//
compound: C[C@@H](Cc1cc2c(c(C(N)=O)c1)N(CCCO)CC2)NCCOc1ccccc1OCC(F)(F)F
classification: c3
//
compound: COc1ccc(C[C@@H](C)[C@@H](C)Cc2ccc(OC)c(OC)c2)cc1OC
classification: c2
//
compound: O=C(Nc1cccc(Nc2ncc(Br)c(NCCc3cnc[nH]3)n2)c1)N1CCCC1
classification: c1
//
compound: O=C(Nc1ccc(Oc2ccnc3[nH]ccc23)c(F)c1)c1cccn(-c2ccc(F)cc2)c1=O
classification: c2
//
compound: O=C(CCCCCCC(=O)Nc1cccnc1)NO
classification: c2
//
compound: Cc1ccc2nc(NCCN)c3ncc(C)n3c2c1
classification: c1

State the band of "O=C(O)C(=O)Nc1cccc(C2=NN=N[N]2)c1"
c3

Bin? "O=C1NCCc2[nH]c(-c3ccncc3)cc21"
c2

* * *

# test-protocol: Quantitative High-Throughput drug screen in 47 multiple myeloma cell lines against the NCATS MIPE library collection: RPMI8226_ATCC cell viability assay (AID 1919871); also: nearly all actives have a fitted effect of over 30% in size
# condition: RPMI8226 myeloma viability, CellTiter-Glo ATP luminescence, 48 h; series mostly up to 45.8 µM
Results filed as inconclusive are left out. Activity calls are given as the source filed them. Calls come from the whole dose curve; as a rule, active = well fitted cell-killing curve with a large enough effect; inconclusive = small, poorly fitted or top-dose-only effect, or effect the other way; inactive = no such curve, though single readings can be large or run the other way.
Respond with a class label; see True = active, False = inactive

Illustrative cases are given below, each with its answer.
molecule: Cc1nc(NC(=O)N2CCC[C@@H]2C(N)=O)sc1-c1ccnc(C(C)(C)C(F)(F)F)c1
classification: True
--
molecule: C=CC(=O)Nc1cc(NC(=O)c2ccc(C)c(NC(=O)c3ccno3)c2)cc(C(F)(F)F)c1
classification: True
--
molecule: CC1(C)O[C@@H]2C[C@H]3[C@@H]4CCC5=CC(=O)C=C[C@]5(C)[C@@H]4[C@@H](O)C[C@]3(C)[C@]2(C(=O)CO)O1
classification: True

Record lookup: outcome of this test for "CC(=O)O[C@H]1C[C@@H]2CC[C@H]3[C@H]4C[C@H]([N+]5(C)CCCCC5)[C@@H](OC(C)=O)[C@@]4(C)CC[C@@H]3[C@@]2(C)C[C@H]1N1CCCCC1" ?
False

Which result was noted for this molecule in the test: "CCOC(=O)N1CCN([N+]([O-])=NOc2ccc([N+](=O)[O-])cc2[N+](=O)[O-])CC1"
True

* * *

# test-protocol: qHTS Screen of the MIPE 4.0 Collection Against Ewings Sarcoma (RDES) (AID 1259252); also: nearly all actives have a fitted effect of over 35% in size
# condition: RD-ES Ewing sarcoma viability, CellTiter-Glo, 48 h; series mostly up to 45.8 µM
Records with an inconclusive call do not appear. Calls of active or inactive are those of the source. Calls follow the shape of the dose curve; as a rule, active = well fitted inhibition curve with a large enough effect; inconclusive = small, poorly fitted or top-dose-only effect; inactive = no such curve, though single readings can be large or run the other way.
Could you please pick one outcome from this set? T for active, F for inactive

// below: answered compounds
compound: COc1ccc(CCC(=O)c2c(O)cc(O[C@@H]3O[C@H](CO)[C@@H](O)[C@H](O)[C@@H]3O[C@@H]3O[C@@H](C)[C@H](O)[C@@H](O)[C@@H]3O)cc2O)cc1O
classification: T

compound: Cc1ccccc1C(=O)Nc1ccc(C(=O)N2CCCC(O)c3cc(Cl)ccc32)c(C)c1 (stereo not drawn)
classification: F

compound: CC(C)OC(=O)[C@H](C)N[P@](=O)(OC[C@H]1O[C@@H](n2ccc(=O)[nH]c2=O)[C@](C)(F)[C@H]1O)Oc1ccccc1
classification: F

Give the logged outcome of this assay for the following compound: "C=CC(=O)Nc1cc(NC(=O)c2ccc(C)c(NC(=O)c3ccno3)c2)cc(C(F)(F)F)c1"
T

For "Cc1cnc(Nc2ccc(CN3CCOCC3)cc2)nc1Nc1cccc(S(=O)(=O)NC(C)(C)C)c1" , which call appears in the assay record?
T

What did the test return for "NC(=NCCCCCCN=C(N)N=C(N)Nc1ccc(Cl)cc1)N=C(N)Nc1ccc(Cl)cc1" ?
T

How did this test come out for "Cc1[nH]c(C=C2C(=O)Nc3ccccc32)c(C)c1CCC(=O)O" ?
T

# fetch the recorded call for "O=c1[nH]c(=O)n([C@H]2C[C@@H](O)[C@@H](CO)O2)cc1F" here
T

What did this assay record as the result for Oc1cc2c(cc1O)C1c3ccc(O)c(O)c3OCC1(O)C2 (stereo not drawn) ?
F

For "COc1cc(C(C)C)c(Oc2cnc(NC(CO)CO)nc2N)cc1I" , which call appears in the assay record?
T

Fill in: this test's call for C[C@H](CCC(=O)O)[C@H]1CCC2C3C[C@H](O)[C@@H]4C[C@H](O)CC[C@]4(C)C3CC[C@@]21C (stereo partly drawn) is ___
F

Called result for "O=C(NC1CC1)c1cccc(-c2ccc3c(NC(=O)C4CC4)n[nH]c3c2)c1"
T

Recorded test outcome, item "COc1ccc(C[C@@H](C)[C@@H](C)Cc2ccc(OC)c(OC)c2)cc1OC"
T

Which outcome was assigned to "CCc1nc(-c2cccc(C)c2)c(-c2ccnc(NC(=O)c3ccccc3)c2)s1" in this test?
T

I'd appreciate the recorded outcome for "C[C@H]1COc2c(N3CCN(C)CC3)c(F)cc3c(=O)c(C(=O)O)cn1c23" from this test.
F

Which outcome did this test record for the compound C=CC(=O)Nc1cccc(Nc2nc(NC3CCC(N(C)C)CC3)nc3c2ncn3C(C)C)c1 (stereo not drawn) ?
T

Would you mind telling me which call this test gave "CCCCCCCCc1ccc(CCC(N)(CO)CO)cc1" ?
T

Hi, do you know how O=C1CSC(=O)N1C(CCc1ccncc1)COc1ccc(-c2cccc([N+](=O)[O-])c2)cc1 (stereo not drawn) came out in this test?
T

Recorded call for "COc1cc(OC)c(NC(=O)Nc2cc(C)on2)cc1Cl" ?
F

For "CC(C)Oc1ccc(C(=O)N[C@H](CNC(=O)CN(C)C)Cc2ccc(-c3cn4cccc([C@H](C)O)c4n3)cc2)cc1Cl" , what call appears in the results of this test?
T

Which result was noted for this compound in the test: Cc1noc(-c2ccc(CSCCC(=O)O)cc2)c1NC(=O)OC(C)c1ccccc1Cl (stereo not drawn)
F
